# Test system: cAMP-response element (CRE) / CREB pathway
# Measurement Protocol: LOPAC1280 qHTS, 4×CRE-driven FLuc-P2A-RLuc coincidence reporter (pCI-6.24) in GripTite 293 MSR cells
# Format: cell-based
# Protocol Conditions: GripTite 293 MSR, FLuc readout, 1536 interplate format; read-out: Intraplate Forskolin Control Mean
# Experimental: This protocol measures bioluminescence derived from both FLuc and RLuc expression from a single assay. […] Sixteen hours after transfection, cells were trypsinized and then dispensed at 2,000 cells/20 μL/well in 384-well tissue culture treated white/solid bottom plates (Greiner Bio-One North America, Monroe, N.C.). […] Luminescence from luciferase activity was detected by using a VIEWLUX plate reader (PerkinElmer, Waltham, Mass.). […]
Quantity Kind: EC50 (µM)

Compound Structure	Study Target	Quantity Kind	Readout Unit	Result
C=C[C@@]1(C)CC(=O)[C@]2(O)[C@@]3(C)[C@@H](O)CCC(C)(C)[C@@H]3[C@H](O)[C@H](OC(C)=O)[C@@]2(C)O1	cAMP-response element (CRE) / CREB pathway	EC50	µM	0.86

====

# System: cAMP-response element (CRE) / CREB pathway
# Measurement Protocol: LOPAC1280 qHTS, 4×CRE-driven FLuc-P2A-RLuc coincidence reporter (pCI-6.24) in GripTite 293 MSR cells
# Type: cell-based
# Protocol Conditions: GripTite 293 MSR, 10 h, Table 5, coincident activators; FLuc readout, 10 h, ~4 nM to 57 μM; read-out: FLuc EC50
pEC50: −log10 of the molar value.
Below, each entry is listed alongside its reported pEC50.
Quantity Kind: pEC50

Molecule	Result
Nc1nc(Cl)nc2c1ncn2[C@@H]1O[C@H](COP(=O)([O-])OP(=O)([O-])OP(=O)([O-])[O-])[C@@H](O)[C@H]1O.[Na+].[Na+].[Na+].[Na+] [compound 17]	4.94
CNc1ncnc2c1ncn2[C@@H]1O[C@H](CO)[C@@H](O)[C@H]1O [compound 12, N6-Methyladenosine]	4.78
Nc1ccc(CCNc2ncnc3c2ncn3[C@@H]2O[C@H](CO)[C@@H](O)[C@H]2O)cc1 [compound 8, N6-2-(4-Aminophenyl)ethyladenosine]	5.84
Cc1ccccc1CNc1ncnc2c1ncn2[C@@H]1O[C@H](CO)[C@@H](O)[C@H]1O [compound 3, Metrifudil]	5.87
OC[C@H]1O[C@@H](n2cnc3c(NC4CCCCC4)ncnc32)[C@H](O)[C@@H]1O [compound 5, N6-Cyclohexyladenosine]	4.77
Nc1nc(Cl)nc2c1ncn2[C@@H]1O[C@H](CO)[C@@H](O)[C@H]1O [compound 11, 2-Chloroadenosine]	6.37
C=C[C@@]1(C)CC(=O)[C@]2(O)[C@@]3(C)[C@@H](O)CCC(C)(C)[C@@H]3[C@H](O)[C@H](OC(C)=O)[C@@]2(C)O1 [cpd 19, Forkskolin]	5.88
OC[C@H]1O[C@@H](n2cnc3c(Nc4ccccc4)ncnc32)[C@H](O)[C@@H]1O [cpd 2, N6-Phenyladenosine]	4.90
Nc1nc(Nc2ccccc2)nc2c1ncn2[C@@H]1O[C@H](CO)[C@@H](O)[C@H]1O [compound 4, 2-Phenylaminoadenosine]	4.97
OC[C@H]1O[C@@H](n2cnc3c(NC4CCCC4)ncnc32)[C@H](O)[C@@H]1O [compound 6, N6-Cyclopentyladenosine]	6.02

====

# System: cAMP-response element (CRE) / CREB pathway
# Measurement Protocol: LOPAC1280 qHTS, 4×CRE-driven FLuc-P2A-RLuc coincidence reporter (pCI-6.24) in GripTite 293 MSR cells
# Format: cell-based
# Protocol Conditions: GripTite 293 MSR; Table 6, compounds activating RLuc only; RLuc readout, 10 h; read-out: RLuc EC50
pEC50: −log10 of the molar value.
Quantity Kind: pEC50

Compound Structure	Quantity Kind	Result
N#CC(=C(/N)Sc1ccccc1N)/C(C#N)=C(\N)Sc1ccccc1N	pEC50	5.07
NC(=O)COc1c(F)cc(SCCNS(=O)(=O)c2ccccc2)cc1F	pEC50	4.67

====

# Tested on: cAMP-response element (CRE) / CREB pathway
# Measurement Protocol: LOPAC1280 qHTS, 4×CRE-driven FLuc-P2A-RLuc coincidence reporter (pCI-6.24) in GripTite 293 MSR cells
# Assay type: cell-based
# Protocol Conditions: Table 5, coincident activators; RLuc readout, 10 h, ~4 nM to 57 μM; read-out: RLuc EC50
pEC50: −log10 of the molar value.

Compound	pEC50
NC(=O)C1=CN([C@@H]2O[C@H](COP(=O)(O)OP(=O)(O)OC[C@H]3O[C@@H](n4cnc5c(N)ncnc54)[C@H](OP(=O)(O)O)[C@@H]3O)[C@@H](O)[C@H]2O)C=CC1 [compound 16, NADPH tetrasodium]	4.65
CCNC(=O)[C@H]1O[C@@H](n2cnc3c(N)ncnc32)[C@H](O)[C@@H]1O	6.27
CCCCC#Cc1nc(NC)c2ncn([C@@H]3O[C@H](CO)[C@@H](O)[C@H]3O)c2n1	5.82
C#CCOC(=O)C1=CCCN(C)C1	5.51
OC[C@H]1O[C@H](n2cnc3c(N[C@H]4CCC[C@@H]4O)ncnc32)[C@H](O)[C@@H]1O [compound 7, GR 79236X]	5.50
NC(=S)c1ccc[n+]([C@@H]2OC(COP(=O)([O-])OP(=O)(O)OC[C@H]3O[C@@H](n4cnc5c(N)ncnc54)[C@H](OP(=O)(O)O)[C@@H]3O)C(O)C2O)c1 (stereo in doubt) [compound 15, Thio-NADP sodium]	5.60
CNC(=O)[C@H]1O[C@@H](n2cnc3c(NCc4ccc(N)cc4)ncnc32)[C@H](O)[C@@H]1O	6.37
C[C@H](Cc1ccccc1)Nc1ncnc2c1ncn2[C@@H]1O[C@H](CO)[C@@H](O)[C@H]1O [cpd 1, R(−)-N6-(2-Phenylisopropyl)adenosine]	5.55
